The measured values listed here are drawn from patent US20250135026A1.

Give HIC DAR8 RT for every item shown.
# assay: ADC hydrophobicity evaluation by HIC (retention time of DAR8 species)
# Type: physicochemical
# reported conditions: HIC method with isopropanol in the mobile phase (values marked *, Method 1)

ADC1-11: antibody: Cofetuzumab (conjugate, chains of the INN, looked up, drug conjugate, antibody: Cofetuzumab) VH: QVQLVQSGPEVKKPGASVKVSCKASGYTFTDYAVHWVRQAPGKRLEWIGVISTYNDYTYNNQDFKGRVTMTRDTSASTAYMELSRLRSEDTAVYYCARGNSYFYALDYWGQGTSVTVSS VL: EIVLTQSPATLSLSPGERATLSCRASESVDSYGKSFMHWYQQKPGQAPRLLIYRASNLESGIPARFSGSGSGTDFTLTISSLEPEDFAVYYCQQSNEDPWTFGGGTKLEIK	14.77* min

List the reported HIC DAR8 RT of each molecule below.
1. ADC1-1: antibody: Cofetuzumab; "ADC Compounds used references" (conjugate, chains of the INN, looked up, drug conjugate) VH: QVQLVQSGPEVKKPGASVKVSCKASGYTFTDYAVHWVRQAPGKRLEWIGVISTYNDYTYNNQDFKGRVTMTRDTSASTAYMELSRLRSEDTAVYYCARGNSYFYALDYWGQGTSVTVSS VL: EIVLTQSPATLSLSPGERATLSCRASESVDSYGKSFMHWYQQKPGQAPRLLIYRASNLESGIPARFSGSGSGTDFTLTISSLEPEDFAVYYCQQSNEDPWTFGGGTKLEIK
2. ADC1-4: antibody: Cofetuzumab (conjugate, chains of the INN, looked up, drug conjugate, antibody: Cofetuzumab) VH: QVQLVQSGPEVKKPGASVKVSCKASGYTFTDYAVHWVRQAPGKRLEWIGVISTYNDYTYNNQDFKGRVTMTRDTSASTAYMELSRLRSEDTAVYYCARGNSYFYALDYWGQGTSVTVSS VL: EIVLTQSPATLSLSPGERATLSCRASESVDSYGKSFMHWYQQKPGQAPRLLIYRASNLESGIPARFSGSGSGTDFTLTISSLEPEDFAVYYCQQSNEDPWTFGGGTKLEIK
3. ADC1-12: antibody: Cofetuzumab; "ADC Compounds used references" (conjugate, chains of the INN, looked up, drug conjugate) VH: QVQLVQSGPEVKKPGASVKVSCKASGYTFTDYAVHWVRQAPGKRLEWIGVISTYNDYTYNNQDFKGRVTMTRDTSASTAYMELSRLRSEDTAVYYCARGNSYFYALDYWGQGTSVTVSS VL: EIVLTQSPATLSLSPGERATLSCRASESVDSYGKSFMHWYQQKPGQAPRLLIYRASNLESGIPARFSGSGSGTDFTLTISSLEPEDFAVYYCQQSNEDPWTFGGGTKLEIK
4. ADC1-2: antibody: Cofetuzumab (conjugate, chains of the INN, looked up, drug conjugate, antibody: Cofetuzumab) VH: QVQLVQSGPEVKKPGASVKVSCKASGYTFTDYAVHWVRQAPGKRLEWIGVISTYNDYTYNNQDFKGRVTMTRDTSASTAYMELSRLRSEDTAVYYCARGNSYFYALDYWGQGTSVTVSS VL: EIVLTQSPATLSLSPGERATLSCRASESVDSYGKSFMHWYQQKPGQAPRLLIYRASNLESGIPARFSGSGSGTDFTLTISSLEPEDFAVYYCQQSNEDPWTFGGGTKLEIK

1. 14.56* min
2. 14.50* min
3. 13.98* min
4. 14.67* min
